- assayText: total protein half-life in vivo (active degradation + dilution); higher = more stable protein
- conditionDescription: E. coli NCM3722 delta-hslV; growth: N-lim chemostat; doubling time 6 h
parameter: total protein half-life in vivo
Express the reported value numerically, then name its unit.

orderedresidues=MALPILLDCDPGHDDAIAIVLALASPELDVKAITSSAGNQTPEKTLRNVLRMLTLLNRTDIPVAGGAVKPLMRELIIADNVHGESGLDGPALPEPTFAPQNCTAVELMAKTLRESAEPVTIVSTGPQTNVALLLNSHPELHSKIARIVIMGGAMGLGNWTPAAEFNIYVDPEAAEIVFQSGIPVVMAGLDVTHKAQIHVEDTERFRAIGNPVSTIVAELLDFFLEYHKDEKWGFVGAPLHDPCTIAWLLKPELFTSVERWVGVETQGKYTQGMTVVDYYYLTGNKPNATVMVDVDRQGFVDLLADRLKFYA parameter="total protein half-life in vivo" endpointresult="4.66 h"

# ---- query sequence ----
Inquiry: Give the measured total protein half-life in vivo for MTNQPTEIAIVGGGMVGGALALGLAQHGFAVTVIEHAEPAPFVADSQPDVRISAISAASVSLLKGLGVWDAVQAMRCHPYRRLETWEWETAHVVFDAAELKLPLLGYMVENTVLQQALWQALEAHPKVTLRVPGSLIALHRHDDLQELELKGGEVIRAKLVIGADGANSQVRQMAGIGVHAWQYAQSCMLISVQCENDPGDSTWQQFTPDGPRAFLPLFDNWASLVWYDSPARIRQLQNMNMAQLQAEIAKHFPSRLGYVTPLAAGAFPLTRRHALQYVQPGLALVGDAAHTIHPLAGQGVNLGYRDVDALIDVLVNARSYGEAWASYPVLKRYQMRRMADNFIMQSGMDLFYAGFSNNLPPLRFMRNLGLMAAERAGVLKRQALKYALGL
Reply text: 4.09 h

---

- assayText: total protein half-life in vivo (active degradation + dilution); higher = more stable protein
- conditionDescription: wild type E. coli NCM3722; growth: C-lim chemostat; doubling time 12 h
parameter: total protein half-life in vivo
Express the reported value numerically, then name its unit.

The following sequences have reported results that may help.
orderedresidues="MSAGSPKFTVRRIAALSLVSLWLAGCSDTSNPPAPVSSVNGNAPANTNSGMLITPPPKMGTTSTAQQPQIQPVQQPQIQATQQPQIQPVQPVAQQPVQMENGRIVYNRQYGNIPKGSYSGSTYTVKKGDTLFYIAWITGNDFRDLAQRNNIQAPYALNVGQTLQVGNASGTPITGGNAITQADAAEQGVVIKPAQNSTVAVASQPTITYSESSGEQSANKMLPNNKPTATTVTAPVTVPTASTTEPTVSSTSTSTPISTWRWPTEGKVIETFGASEGGNKGIDIAGSKGQAIIATADGRVVYAGNALRGYGNLIIIKHNDDYLSAYAHNDTMLVREQQEVKAGQKIATMGSTGTSSTRLHFEIRYKGKSVNPLRYLPQR [P0ADA3]" endpointresult="12.8 h"
orderedresidues=MAAKDRIQAIKQMVANDKKVTVSNLSGIFQVTEETIRRDLEKLEDEGFLTRTYGGAVLNTAMLTENIHFYKRASSFYEEKQLIARKALPFIDNKTTMAADSSSTVMELLKLLQDRSGLTLLTNSAEAIHVLAQSEIKVVSTGGELNKNTLSLQGRITKEIIRRYHVDIMVMSCKGLDINSGALDSNEAEAEIKKTMIRQATEVALLVDHSKFDRKAFVQLADFSHINYIITDKSPGAEWIAFCKDNNIQLVW endpointresult="9.64 h"

# ---- query sequence ----
Inquiry: Give the measured total protein half-life in vivo for MNMKTIEDVFIHLLSDTYSAEKQLTRALAKLARATSNEKLSQAFHAHLEETHGQIERIDQVVESESNLKIKRMKCVAMEGLIEEANEVIESTEKNEVRDAALIAAAQKVEHYEIASYGTLATLAEQLGYRKAAKLLKETLEEEKATDIKLTDLAINNVNKKAENKA
Reply text: 10.5 h

---

- assayText: total protein half-life in vivo (active degradation + dilution); higher = more stable protein
- conditionDescription: wild type E. coli NCM3722; growth: N-lim chemostat; doubling time 12 h
For each of the sequences below, state its total protein half-life in vivo.

orderedresidues=MFDIGVNLTSSQFAKDRDDVVACAFDAGVNGLLITGTNLRESQQAQKLARQYSSCWSTAGVHPHDSSQWQAATEEAIIELAAQPEVVAIGECGLDFNRNFSTPEEQERAFVAQLRIAADLNMPVFMHCRDAHERFMTLLEPWLDKLPGAVLHCFTGTREEMQACVAHGIYIGITGWVCDERRGLELRELLPLIPAEKLLIETDAPYLLPRDLTPKPSSRRNEPAHLPHILQRIAHWRGEDAAWLAATTDANVKTLFGIAF endpointresult="8.13 h"
orderedresidues=MKIVIAPDSFKESLSAEKCCQAIKAGFSTLFPDANYICLPIADGGEGTVDAMVAATGGNIVTLEVCGPMGEKVNAFYGLTGDGKTAVIEMAAASGLMLVAPEKRNPLLASSFGTGELIRHALDNDIRHIILGIGGSATVDGGMGMAQALGVRFLDADGQALAANGGNLARVASIEMDECDPRLANCHIEVACDVDNPLVGARGAAAVFGPQKGATPEMVEELEQGLQNYARVLQQQTEINVCQMAGGGAAGGMGIAAAVFLNADIKPGIEIVLNAVNLAQAVQGAALVITGEGRIDSQTAGGKAPLGVASVAKQFNVPVIGIAGVLGDGVEVVHQYGIDAVFSILPRLAPLAEVLASGETNLFNSARNIACAIKIGQGIKN endpointresult="8.2 h"

# ---- query sequence ----
Inquiry: Give the measured total protein half-life in vivo for MSSRVLTPDVVGIDALVHDHQTVLAKAEGGVVAVFANNAPAFYAVTPARLAELLALEEKLARPGSDVALDDQLYQEPQAAPVAVPMGKFAMYPDWQPDADFIRLAALWGVALREPVTTEELASFIAYWQAEGKVFHHVQWQQKLARSLQIGRASNGGLPKRDVNTVSEPDSQIPPGFRG [P0A8J2]
Reply text: 2.93 h

---

- assayText: total protein half-life in vivo (active degradation + dilution); higher = more stable protein
- conditionDescription: E. coli NCM3722 delta-clpP; growth: N-lim chemostat; doubling time 6 h
For each of the sequences below, state its total protein half-life in vivo.
Give bare numbers, in h.

The following sequences have reported results that may help.
orderedresidues=MSSEKLYSPLKVGAITAANRIFMAPLTRLRSIEPGDIPTPLMAEYYRQRASAGLIISEATQISAQAKGYAGAPGIHSPEQIAAWKKITAGVHAENGHMAVQLWHTGRISHASLQPGGQAPVAPSALSAGTRTSLRDENGQAIRVETSMPRALELEEIPGIVNDFRQAIANAREAGFDLVELHSAHGYLLHQFLSPSSNHRTDQYGGSVENRARLVLEVVDAGIEEWGADRIGIRVSPIGTFQNTDNGPNEEADALYLIEQLGKRGIAYLHMSEPDWAGGEPYTDAFREKVRARFHGPIIGAGAYTVEKAETLIGKGLIDAVAFGRDWIANPDLVARLQRKAELNPQRAESFYGGGAEGYTDYPTL parameter="total protein half-life in vivo" measurementunits=h endpointresult=2.14
orderedresidues=MSDTTELVDLAVIFPDLEIELKYACADNITGKAIYQQARCLLHKDAITALAKSISIAQLSGLQLVIYDAYRPQQAQAMLWQACPDPQYVVDVTVGSNHSRGTAIDLTLRDEHGNILDMGAGFDEMHERSHAYHPSVPPAAQRNRLLLNAIMTGGGFVGISSEWWHFELPQAASYPLLADQFSCFISPGTQHVS parameter="total protein half-life in vivo" measurementunits=h endpointresult=1.76
orderedresidues="MQAEILLTLKLQQKLFADPRRISLLKHIALSGSISQGAKDAGISYKSAWDAINEMNQLSEHILVERATGGKGGGGAVLTRYGQRLIQLYDLLAQIQQKAFDVLSDDDALPLNSLLAAISRFSLQTSARNQWFGTITARDHDDVQQHVDVLLADGKTRLKVAITAQSGARLGLDEGKEVLILLKAPWVGITQDEAVAQNADNQLPGIISHIERGAEQCEVLMALPDGQTLCATVPVNEATSLQQGQNVTAYFNADSVIIATLC [P0A9G8]" parameter="total protein half-life in vivo" measurementunits=h endpointresult=5.85
orderedresidues=MVKKAIVTAMAVISLFTLMGCNNRAEVDTLSPAQAAELKPMPQSWRGVLPCADCEGIETSLFLEKDGTWVMNERYLGAREEPSSFASYGTWARTADKLVLTDSKGEKSYYRAKGDALEMLDREGNPIESQFNYTLEAAQSSLPMTPMTLRGMYFYMADAATFTDCATGKRFMVANNAELERSYLAARGHSEKPVLLSVEGHFTLEGNPDTGAPTKVLAPDTAGKFYPNQDCSSLGQ parameter="total protein half-life in vivo" measurementunits=h endpointresult=5.68

# ---- query sequence ----
Inquiry: Give the measured total protein half-life in vivo for MEKGTVKWFNNAKGFGFICPEGGGEDIFAHYSTIQMDGYRTLKAGQSVQFDVHQGPKGNHASVIVPVEVEAAVA [P0A968]
Reply text: 1.11
